FYI, the data here is from ChEMBL document CHEMBL4680074.

test: Protein binding in CD-1 mouse plasma; format: ADME, cell-free; details: read-out: PPB (converted)
READOUT KIND: fraction unbound
Just the number, please, no unit after it.

Qu. Given the compound `O=C(NC[C@H](O)CN1CCc2ccccc2C1)c1cc(NC2COC2)ncn1` , what is its reported fraction unbound?
Ans. 0.7

###

molecular target: PRMT5/MEP50 complex (Homo sapiens, UniProt O14744); assay: Inhibition of human full length FLAG-tagged PRMT5/human His6-tagged MEP50 expressed in baculovirus-infected Sf9 cells assessed as reduction in tritium incorporation into peptide substrate using human Histone H4 (1 to 15 residues) and [3H]SAM as substrate preincubated with enzyme and H4 for 30 mins followed by [3H]SAM addition and measured after 120 mins by radioactive flashplate assay
Sequence (O14744 whole entry, the tested form may be a part): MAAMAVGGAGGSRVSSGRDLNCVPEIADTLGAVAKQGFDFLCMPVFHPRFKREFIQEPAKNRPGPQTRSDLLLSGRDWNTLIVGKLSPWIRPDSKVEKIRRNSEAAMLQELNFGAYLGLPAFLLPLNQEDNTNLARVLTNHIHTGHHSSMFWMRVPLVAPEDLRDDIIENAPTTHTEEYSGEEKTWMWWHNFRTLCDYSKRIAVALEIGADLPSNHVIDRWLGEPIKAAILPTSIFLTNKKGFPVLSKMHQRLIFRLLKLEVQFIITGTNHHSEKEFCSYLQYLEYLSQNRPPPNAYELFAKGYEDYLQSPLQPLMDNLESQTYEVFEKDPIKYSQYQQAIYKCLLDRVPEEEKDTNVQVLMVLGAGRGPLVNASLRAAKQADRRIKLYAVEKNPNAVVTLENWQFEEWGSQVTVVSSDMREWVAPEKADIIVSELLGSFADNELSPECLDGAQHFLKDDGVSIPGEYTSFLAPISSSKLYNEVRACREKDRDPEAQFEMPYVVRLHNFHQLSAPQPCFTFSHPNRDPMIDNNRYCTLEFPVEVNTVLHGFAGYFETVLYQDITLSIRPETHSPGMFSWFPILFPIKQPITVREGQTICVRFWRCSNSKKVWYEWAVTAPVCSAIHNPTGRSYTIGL
Sequence (Q9BQA1 whole entry, further chain, the tested form may be a part): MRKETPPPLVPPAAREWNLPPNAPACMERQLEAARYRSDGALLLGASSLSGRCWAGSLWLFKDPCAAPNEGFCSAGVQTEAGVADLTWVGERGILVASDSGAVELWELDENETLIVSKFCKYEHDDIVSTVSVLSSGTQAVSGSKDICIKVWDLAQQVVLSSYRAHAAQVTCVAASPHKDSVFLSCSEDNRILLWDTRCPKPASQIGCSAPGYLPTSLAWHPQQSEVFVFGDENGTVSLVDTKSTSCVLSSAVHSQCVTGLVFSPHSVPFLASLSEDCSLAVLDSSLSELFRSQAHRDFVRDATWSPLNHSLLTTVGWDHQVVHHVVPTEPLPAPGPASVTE
READOUT KIND: pIC50
Conceptually, pIC50 converts a concentration in mol/L into minus its log10.

Qu. Given the compound `O=C(NC[C@H](O)CN1CCc2ccccc2C1)c1cccc(-c2ccccn2)c1` , what is its reported pIC50?
Ans. 7.89

Qu. Given the compound O=C(COc1cccc2cccnc12)NCC(O)CN1CCc2ccccc2C1 (racemic) , what is its reported pIC50?
Ans. 7.64

Qu. Given the compound `O=C(COc1cccc2cccnc12)NC[C@@H](O)CN1CCc2ccccc2C1` , what is its reported pIC50?
Ans. 7.96

Qu. Given the compound `O=C(NC[C@H](O)CN1CCc2ccccc2C1)c1cccc(NC2CCOCC2)c1` , what is its reported pIC50?
Ans. 7.74

Qu. Given the compound Cn1cnc2ccc(-c3ccnc(NCC(O)CN4CCc5ccccc5C4)c3)cc21 (stereo unspecified) , what is its reported pIC50?
Ans. 7.48

Qu. Given the compound Cn1cnc2ccc(-c3cccc(OCC(O)CN4CCc5ccccc5C4)c3)cc21 (stereo unspecified) , what is its reported pIC50?
Ans. 7.14
